# Subject Of Test: Lysophosphatidic acid receptor 2 (Homo sapiens, UniProt Q9HBW0)
# Sequence (Q9HBW0 whole entry): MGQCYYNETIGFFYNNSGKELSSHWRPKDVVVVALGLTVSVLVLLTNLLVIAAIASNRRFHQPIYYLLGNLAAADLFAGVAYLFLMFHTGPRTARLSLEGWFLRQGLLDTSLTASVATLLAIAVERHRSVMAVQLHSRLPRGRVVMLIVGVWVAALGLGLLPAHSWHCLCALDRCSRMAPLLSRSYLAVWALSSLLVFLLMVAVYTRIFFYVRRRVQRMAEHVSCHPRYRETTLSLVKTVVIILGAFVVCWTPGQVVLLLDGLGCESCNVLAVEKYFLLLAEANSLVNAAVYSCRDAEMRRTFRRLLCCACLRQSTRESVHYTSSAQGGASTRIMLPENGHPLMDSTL
# Procedure Text: Antagonist activity at LPA2 receptor (unknown origin) expressed in cells assessed as blockade of LPA-induced calcium mobilization measured after 120 secs by Fluo-4 NW dye based assay
pIC50: −log10 of the molar value.

{"columns": ["Molecule Smiles", "pIC50"],
 "data": [
  ["Cc1[nH]nc(-c2ccc(OCc3nnn[nH]3)cc2O)c1Oc1ccc(F)cc1F", 4.51]
]}

====

# Procedure Text: Plasma concentration in C57B1/6J mouse at 25 mg/kg, ip measured after 0.5 hrs by HPLC-MS analysis

{"columns": ["Molecule Smiles", "concentration at 0.5 h"],
 "data": [
  ["Cc1[nH]nc(-c2ccc(OCc3nnn[nH]3)cc2O)c1Oc1ccc(Cl)cc1Cl", "103000 ng/g"]
]}
